Target: UDP-N-acetylglucosamine--peptide N-acetylglucosaminyltransferase 110 kDa subunit (Homo sapiens)
Test: Binding affinity to human OGT expressed in Escherichia coli […] cells assessed as alpha-FLAG-HRP activity relative to alpha-A-crystallin peptide by azido-ELISA
Settings: BL21-DE3
Where a SMILES comes first, the peptide text is derived from it.
Property Measured: Activity
Note: the reply should be a number with no unit written.

Molecule: CC[C@H](C)[C@H](NC(=O)[C@H](C)N)C(=O)N1CCC[C@H]1C(=O)N[C@@H](C)C(=O)N[C@@H](CO)C(=O)N[C@@H](CCCNC(=N)N)C(=O)N[C@@H](CCC(=O)O)C(=O)N[C@@H](CCC(=O)O)C(=O)N[C@@H](CCCCN)C(=O)O (H-AIPASREEK-OH)
Activity: 0.1

# input for lookup
Task item: Form field: reported Activity of CC(C)[C@H](NC(=O)[C@@H]1CCCN1C(=O)[C@@H]1CCCN1C(=O)[C@H](C)N)C(=O)N[C@@H](CO)C(=O)N[C@@H](CCCNC(=N)N)C(=O)N[C@@H](CCC(=O)O)C(=O)N[C@@H](CCC(=O)O)C(=O)N[C@@H](CCCCN)C(=O)O (H-APPVSREEK-OH)
Reply: 0.1

----------
Target: UDP-N-acetylglucosamine--peptide N-acetylglucosaminyltransferase 110 kDa subunit (Homo sapiens)
Sequence (whole entry): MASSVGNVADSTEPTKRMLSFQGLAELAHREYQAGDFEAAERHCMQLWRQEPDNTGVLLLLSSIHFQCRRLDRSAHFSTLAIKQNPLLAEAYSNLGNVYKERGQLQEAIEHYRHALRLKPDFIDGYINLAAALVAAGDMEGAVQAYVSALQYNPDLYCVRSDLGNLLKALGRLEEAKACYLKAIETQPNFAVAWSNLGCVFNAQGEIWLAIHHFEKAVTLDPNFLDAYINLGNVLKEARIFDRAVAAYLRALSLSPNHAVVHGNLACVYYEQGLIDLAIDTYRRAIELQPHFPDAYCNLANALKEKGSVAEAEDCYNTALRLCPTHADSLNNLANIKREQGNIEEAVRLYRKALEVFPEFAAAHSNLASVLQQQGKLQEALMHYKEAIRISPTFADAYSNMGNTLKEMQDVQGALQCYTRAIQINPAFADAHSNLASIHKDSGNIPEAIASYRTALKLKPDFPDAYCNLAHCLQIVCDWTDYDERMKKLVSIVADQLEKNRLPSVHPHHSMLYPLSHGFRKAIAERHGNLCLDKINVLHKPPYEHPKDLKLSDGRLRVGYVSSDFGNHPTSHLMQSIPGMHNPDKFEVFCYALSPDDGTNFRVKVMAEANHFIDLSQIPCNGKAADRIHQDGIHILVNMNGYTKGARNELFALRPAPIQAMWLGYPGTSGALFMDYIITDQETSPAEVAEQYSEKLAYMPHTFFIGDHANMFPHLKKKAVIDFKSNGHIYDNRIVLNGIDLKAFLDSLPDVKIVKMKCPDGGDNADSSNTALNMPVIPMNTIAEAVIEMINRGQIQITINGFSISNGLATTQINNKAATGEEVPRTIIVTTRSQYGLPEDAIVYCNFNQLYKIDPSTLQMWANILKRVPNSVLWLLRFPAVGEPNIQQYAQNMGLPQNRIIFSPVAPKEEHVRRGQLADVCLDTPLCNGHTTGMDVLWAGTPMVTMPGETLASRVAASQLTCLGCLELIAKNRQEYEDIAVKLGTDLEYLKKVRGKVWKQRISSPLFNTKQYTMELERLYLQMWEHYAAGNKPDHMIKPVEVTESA
Experiment: Binding affinity to human OGT expressed in Escherichia coli […] cells assessed as alpha-FLAG-HRP activity relative to alpha-A-crystallin peptide by azido-ELISA
Conditions: BL21-DE3
Where a SMILES comes first, the peptide text is derived from it.
Property Measured: Activity
Just the number.

Consider the reported Activity for these compounds:
Compound: CC[C@H](C)[C@H](NC(=O)[C@H](C)N)C(=O)N1CCC[C@H]1C(=O)N[C@@H](CCCNC(=N)N)C(=O)N[C@@H](CO)C(=O)N[C@@H](CCCNC(=N)N)C(=O)N[C@@H](CCC(=O)O)C(=O)N[C@@H](CCC(=O)O)C(=O)N[C@@H](CCCCN)C(=O)O (H-AIPRSREEK-OH)
Property Measured: Activity
Experimental Value: 0
//
Compound: CC[C@H](C)[C@H](NC(=O)[C@H](C)N)C(=O)N1CCC[C@H]1C(=O)N[C@H](C(=O)N[C@@H](CO)C(=O)N[C@@H](C)C(=O)N[C@@H](CCC(=O)O)C(=O)N[C@@H](CCC(=O)O)C(=O)N[C@@H](CCCCN)C(=O)O)C(C)C (H-AIPVSAEEK-OH)
Property Measured: Activity
Experimental Value: 0
//
Compound: CC[C@H](C)[C@H](NC(=O)[C@H](C)N)C(=O)N1CCC[C@H]1C(=O)N[C@H](C(=O)N[C@@H](CO)C(=O)N[C@@H](CCCNC(=N)N)C(=O)N[C@@H](C)C(=O)N[C@@H](CCC(=O)O)C(=O)N[C@@H](CCCCN)C(=O)O)C(C)C (H-AIPVSRAEK-OH)
Property Measured: Activity
Experimental Value: 5
//
Compound: CC[C@H](C)[C@H](NC(=O)[C@H](C)N)C(=O)N[C@@H](CCC(=O)O)C(=O)N[C@H](C(=O)N[C@@H](CO)C(=O)N[C@@H](CCCNC(=N)N)C(=O)N[C@@H](CCC(=O)O)C(=O)N[C@@H](CCC(=O)O)C(=O)N[C@@H](CCCCN)C(=O)O)C(C)C (H-AIEVSREEK-OH)
Property Measured: Activity
Experimental Value: 0
//
Compound: CC[C@H](C)[C@H](NC(=O)[C@H](C)N)C(=O)N1CCC[C@H]1C(=O)N1CCC[C@H]1C(=O)N[C@@H](CO)C(=O)N[C@@H](CCCNC(=N)N)C(=O)N[C@@H](CCC(=O)O)C(=O)N[C@@H](CCC(=O)O)C(=O)N[C@@H](CCCCN)C(=O)O (H-AIPPSREEK-OH)
Property Measured: Activity
Experimental Value: 0.1
//
Compound: CC[C@H](C)[C@H](NC(=O)[C@H](C)N)C(=O)N1CCC[C@H]1C(=O)N[C@H](C(=O)N[C@@H](CO)C(=O)N[C@@H](CCCNC(=N)N)C(=O)N[C@@H](CCC(=O)O)C(=O)N[C@@H](C)C(=O)N[C@@H](CCCCN)C(=O)O)C(C)C (H-AIPVSREAK-OH)
Property Measured: Activity
Experimental Value: 0.6

Task item: Need Activity of CC(C)[C@H](NC(=O)[C@@H]1CCCN1C(=O)[C@H](CCC(=O)O)NC(=O)[C@H](C)N)C(=O)N[C@@H](CO)C(=O)N[C@@H](CCCNC(=N)N)C(=O)N[C@@H](CCC(=O)O)C(=O)N[C@@H](CCC(=O)O)C(=O)N[C@@H](CCCCN)C(=O)O (H-AEPVSREEK-OH) , thanks.
Reply: 0.5

Values from ChEMBL document CHEMBL1149538
